experiment: Drug metabolism in human liver microsomes after 2 hrs by UPLC analysis; format: ADME, microsome; details: read-out: Drug metabolism
Measured Attribute: metabolised at 2 h (%)
I only need the number, in %, no unit after it.

Summary for this compound, `CC(C)(C)c1ccc(OCCCCN2CCN(c3ccncc3)CC2)cc1` : metabolised at 2 h is 30

###

molecular target: Histamine H3 receptor (Homo sapiens, UniProt Q9Y5N1); test: Displacement of [3H]Nalpha-methylhistamine from recombinant human H3 receptor expressed in HEK293 cells after 90 mins by liquid scintillation counting method
Sequence (Q9Y5N1 whole entry): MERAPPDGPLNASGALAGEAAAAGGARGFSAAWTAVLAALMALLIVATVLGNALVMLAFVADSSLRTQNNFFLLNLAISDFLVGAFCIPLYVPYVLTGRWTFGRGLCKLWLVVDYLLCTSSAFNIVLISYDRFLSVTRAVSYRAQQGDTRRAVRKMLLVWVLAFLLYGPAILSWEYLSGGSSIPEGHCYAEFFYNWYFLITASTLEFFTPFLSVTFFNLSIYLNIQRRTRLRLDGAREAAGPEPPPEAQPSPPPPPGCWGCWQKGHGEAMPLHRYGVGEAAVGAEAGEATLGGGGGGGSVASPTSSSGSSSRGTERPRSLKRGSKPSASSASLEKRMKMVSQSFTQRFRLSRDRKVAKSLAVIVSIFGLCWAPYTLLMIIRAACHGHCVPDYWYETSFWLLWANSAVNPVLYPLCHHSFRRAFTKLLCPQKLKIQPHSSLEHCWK
pKi: −log10 of the molar value.
Classification field: Satisfied = pKi at or over 6; Not satisfied = pKi under 6.

-- ask For this compound, is measured pKi 6 or higher? `CC(C)(C)c1ccc(OCCCCN2CCN(c3ccncc3)CC2)cc1`
-- reply Satisfied

-- ask For this compound, is measured pKi 6 or higher? `CC(C)(C)c1ccc(OCCCN2CCN(c3cnccn3)CC2)cc1`
-- reply Not satisfied

-- ask For this compound, is measured pKi 6 or higher? `CC(C)(C)c1ccc(OCCCN2CCN(c3cccnc3)CC2)cc1`
-- reply Not satisfied

-- ask For this compound, is measured pKi 6 or higher? `CC(C)(C)c1ccc(OCCCN2CCCCC2)cc1`
-- reply Satisfied

-- ask For this compound, is measured pKi 6 or higher? CC(C)(C)c1ccc(OCCCCN2CCN(C(=O)C3CCCO3)CC2)cc1 (stereo not given)
-- reply Not satisfied

-- ask For this compound, is measured pKi 6 or higher? `CC(C)(C)c1ccc(OCCCN2CCN(c3ncccn3)CC2)cc1`
-- reply Not satisfied

-- ask For this compound, is measured pKi 6 or higher? `CCC(C)(C)c1ccc(OCCCCN2CCN(c3ccncc3)CC2)cc1`
-- reply Satisfied

-- ask For this compound, is measured pKi 6 or higher? `CCC(C)(C)c1ccc(OCCCCN2CCN(c3cccnc3)CC2)cc1`
-- reply Not satisfied

-- ask For this compound, is measured pKi 6 or higher? CC(C)(C)c1ccc(OCCCN2CCN(C(=O)C3CCCO3)CC2)cc1 (stereo not given)
-- reply Not satisfied

-- ask For this compound, is measured pKi 6 or higher? `CCC(C)(C)c1ccc(OCCCN2CCN(c3ccncc3)CC2)cc1`
-- reply Satisfied

-- ask For this compound, is measured pKi 6 or higher? `CC(C)(C)c1ccc(OCCCN2CCN(c3ccccn3)CC2)cc1`
-- reply Not satisfied

-- ask For this compound, is measured pKi 6 or higher? CCC(C)(C)c1ccc(OCCCCN2CCN(C(=O)C3CCCO3)CC2)cc1 (stereo not given)
-- reply Not satisfied

-- ask For this compound, is measured pKi 6 or higher? `CC(C)(C)c1ccc(OCCCCN2CCN(c3ccccn3)CC2)cc1`
-- reply Not satisfied

-- ask For this compound, is measured pKi 6 or higher? `CCC(C)(C)c1ccc(OCCCN2CCN(c3ncccn3)CC2)cc1`
-- reply Not satisfied

-- ask For this compound, is measured pKi 6 or higher? `CCC(C)(C)c1ccc(OCCCCN2CCN(c3ncccn3)CC2)cc1`
-- reply Not satisfied

-- ask For this compound, is measured pKi 6 or higher? `CCC(C)(C)c1ccc(OCCCN2CCN(c3ccccn3)CC2)cc1`
-- reply Not satisfied

-- ask For this compound, is measured pKi 6 or higher? `CCC(C)(C)c1ccc(OCCCN2CCN(c3cccnc3)CC2)cc1`
-- reply Not satisfied

-- ask For this compound, is measured pKi 6 or higher? CCC(C)(C)c1ccc(OCCCN2CCN(C(=O)C3CCCO3)CC2)cc1 (stereo not given)
-- reply Not satisfied

-- ask For this compound, is measured pKi 6 or higher? `CC(C)(C)c1ccc(OCCCCN2CCN(c3cnccn3)CC2)cc1`
-- reply Not satisfied

-- ask For this compound, is measured pKi 6 or higher? `CCC(C)(C)c1ccc(OCCCN2CCN(c3cnccn3)CC2)cc1`
-- reply Not satisfied

-- ask For this compound, is measured pKi 6 or higher? `CCC(C)(C)c1ccc(OCCCCN2CCN(c3ccccn3)CC2)cc1`
-- reply Satisfied

-- ask For this compound, is measured pKi 6 or higher? `CC(C)(C)c1ccc(OCCCCN2CCN(c3cccnc3)CC2)cc1`
-- reply Not satisfied

-- ask For this compound, is measured pKi 6 or higher? `CC(C)(C)c1ccc(OCCCN2CCN(c3ccncc3)CC2)cc1`
-- reply Satisfied
